system: chloroquine sensitive (CQS) strain (NF54) of P. falciparum; assay: In vitro antiplasmodial activity, Assay A (parasite lactate dehydrogenase assay); format: cell-based; settings: Plasmodium falciparum
pIC50: −log10 of the molar value.
Parameter measured: pIC50

# return recorded pIC50 for input CC(C)(O)c1cc(-c2ncnc3cc(-c4ccc(C5(C(=O)N6C[C@H]7C[C@@H]6CO7)CC5)cc4)oc23)ccn1 < 7.30

Report measured pIC50; entry is CC(C)(O)c1cc(-c2ncnc3cc(-c4ccc(C(=O)N5CCOCC5)cc4)oc23)ccc1F < 7.30

For the molecule CC(C)(O)c1cccc(-c2ncnc3cc(-c4ccc(S(C)(=O)=O)cc4)oc23)c1F , give its reported pIC50. > 7.82

Give recorded pIC50. CC(C)(C)OC(=O)c1ccc(-c2cc3ncnc(-c4ccnc(C(C)(C)O)c4)c3o2)cc1 > 7.82

Using known records, supply pIC50 for CC(C)(O)c1cc(-c2ncnc3cc(-c4cccc(C(=O)O)c4)oc23)ccn1 > 7.82

---
Let me know recorded pIC50 for C[C@H]1CN(C(=O)c2ccc(-c3cc4ncnc(-c5cccc(C(C)(C)O)c5F)c4o3)cc2)C[C@H](C)O1 , thanks. > 7.82

Report pIC50 for CC(C)(O)c1nccc(-c2ncnc3cc(-c4ccc(C(=O)N5C[C@H]6C[C@@H]5CO6)cc4)oc23)c1F > 7.82

---

tested on: P. vivax liver-stage hypnozoites; assay: In vitro P. vivax liver-stage assay in primary human hepatocytes, radical cure mode: hypnozoites; assay type: cell-based; settings: Plasmodium vivax, Hepatocyte, infected primary human hepatocytes, read-out: Pv Hypnozoite IC50
Attribute: IC50

These solved cases illustrate the format of a correct answer.
Fill in reported IC50 for this entry: CC(C)(O)c1cccc(-c2ncnc3cc(-c4ccc(S(C)(=N)=O)cc4)oc23)c1F (centres unmarked) 15 to 50 nM

Kindly indicate its recorded IC50. Item: CC(C)(O)c1cc(-c2ncnc3cc(-c4ccc(S(C)(=O)=O)cc4)oc23)ccn1 > 50 nM

Please list IC50 recorded for the compound CC(C)(O)c1cccc(-c2ncnc3cc(-c4ccc(C(=O)O)cc4)oc23)c1F 15 to 50 nM

Indicate the recorded IC50 value for this compound: CC(C)(O)c1cccc(-c2ncnc3cc(-c4ccc(S(C)(=O)=O)cc4)oc23)c1F < 15 nM

Continuing:
Provide one value: measured IC50 of CC(C)(O)c1cccc(-c2ncnc3cc(-c4ccc(C(=O)N5CCOCC5)cc4)oc23)c1F < 15 nM

---

Tested on: sensitive (NF54) strains of P. falciparum
Experiment: In vitro P. falciparum assay, modified [3H]hypoxanthine incorporation assay
Type: cell-based
Conditions: Plasmodium falciparum; NF54 strain, [3H]hypoxanthine incorporation; read-out: In vitro P. falciparum growth inhibition IC50
From the text: Compounds according to the present invention were screened against sensitive (NF54) strains of P. falciparum in vitro using the modified [3H]hypoxanthine incorporation assay. […]
Parameter measured: IC50

Name the recorded IC50 of CC(C)(O)c1cccc(-c2ncnc3cc(-c4ccc(S(C)(=O)=O)cc4)oc23)c1F [Compound D149] , assay system sensitive (NF54) strains of P. falciparum. < 0.01 µM

Give measured IC50 for CC(C)(O)c1cccc(-c2ncnc3cc(-c4ccc(C(=O)N5CCOCC5)cc4)oc23)c1F [Compound D183] (sensitive (NF54) strains of P. falciparum). < 0.01 µM

Alright, here's another compound for you.
Send back sensitive (NF54) strains of P. falciparum IC50 of CC(C)(O)c1cccc(-c2ncnc3cc(-c4ccc(S5(=O)=NCCC5)cc4)oc23)c1F (stereo not drawn) [Compound D212] only. < 0.01 µM

---

tested on: chloroquine sensitive (CQS) strain (NF54) of P. falciparum; test: In vitro antiplasmodial activity, Assay A (parasite lactate dehydrogenase assay); format: cell-based; conditions: Plasmodium falciparum
Form field: IC50 (one value per entry).

For the compound CC(C)(O)c1cccc(-c2ncnc3cc(-c4ccc(S(C)(=N)=O)cc4)oc23)c1F (stereo not shown) , give its reported IC50. < 15 nM

Specify reported IC50 for the compound shown: CC(C)(O)c1cc(-c2ncnc3cc(-c4ccc(C(=O)N5C[C@@H]6C[C@H]5CO6)cc4)oc23)ccn1 < 15 nM

Indicate its recorded IC50; the compound in question is CC(C)(O)c1cccc(-c2ncnc3cc(-c4ccc(C(=O)N5C[C@H]6C[C@@H]5CO6)cc4)oc23)c1F < 15 nM

Hello, please tell me recorded IC50 for this one: CC(C)(O)c1cc(-c2ncnc3cc(-c4ccc(C(=O)N5C[C@H]6C[C@@H]5CO6)cc4)oc23)ccn1 < 15 nM

Alright, here's another compound for you.
Give a short answer stating reported IC50 for CC(C)(O)c1cccc(-c2ncnc3cc(-c4ccc(C(=O)O)cc4)oc23)c1F . 15 to 50 nM

---

system: chloroquine sensitive (CQS) strain (NF54) of P. falciparum; assay: In vitro antiplasmodial activity, Assay A (parasite lactate dehydrogenase assay); format: cell-based; conditions: Plasmodium falciparum
compounds and their reported IC50

State, in one line, measured IC50 of C[C@H]1CN(C(=O)c2ccc(-c3cc4ncnc(-c5ccnc(C(C)(C)O)c5)c4o3)cc2)CCO1 15 to 50 nM

Quick one: give measured IC50 for CC(C)(O)c1cccc(-c2ncnc3cc(-c4ccc(S(N)(=O)=O)cc4)oc23)c1F 15 to 50 nM

Specify reported IC50 for the compound shown: C[C@@H]1COCCN1C(=O)c1ccc(-c2cc3ncnc(-c4cccc(C(C)(C)O)c4F)c3o2)cc1 < 15 nM

Provide measured IC50 value, entry: C[C@@H]1CN(C(=O)c2ccc(-c3cc4ncnc(-c5ccnc(C(C)(C)O)c5)c4o3)cc2)C[C@H](C)O1 > 50 nM

Tell us which IC50 value is on record for CS(=O)(=O)c1ccc(-c2cc3ncnc(-c4ccnc(N5CC(O)C5)c4)c3o2)cc1 [Compound P1] > 50 nM

For the compound C[C@@H]1CN(C(=O)c2ccc(-c3cc4ncnc(-c5ccnc(C(C)(C)O)c5)c4o3)cc2)CCO1 , give its measured IC50 value. < 15 nM

Give the reported value of IC50 for this record: CC(C)(O)c1cccc(-c2ncnc3cc(-c4ccc(C(=O)N5CCOCC5)cc4)oc23)c1F < 15 nM

Here is the next item to consider.
Give IC50 for the following compound: C[C@H]1COCCN1C(=O)c1ccc(-c2cc3ncnc(-c4cccc(C(C)(C)O)c4F)c3o2)cc1 < 15 nM

This collection of values is drawn from patent US20260042772A1.
